target: full-length human ghrelin acylated with an octanoyl group on the serine at position 3 (human, n-octanoyl group on Ser 3); assay: cell-based or functional assay
Sequence (peptide, as listed by the source): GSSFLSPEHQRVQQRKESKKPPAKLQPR
Assignment: determine reported IC50 (nM), FLPR calcium assay on AV12 cells expressing human GHS-R1a for the given binders.
Answers are plain numbers, in nM.

Consider the reported IC50 (nM), FLPR calcium assay on AV12 cells expressing human GHS-R1a for these binders:
BINDER	OUTPUT_UNIT	QUANTITATIVE_READOUT
anti-hGhrelin Fab 2211 (Fab, V domains shown, Mouse Fab, kappa light chain) VH: EIQLQQSGAELMRPGASVKLSCKATGYTFTGYWIEWVKQRPGHGLEWIGEILPGSGSTNYNEKFKGKATFTADTSSNTANMQLSSLTTEDSAIYYCARYPQFGLRRERIAYWGQGTLVTVSV VL: DLVLTQSPASLAVSLGQRATISCRASKSVSTSGYSYMHWYQQKPGQPPKLLIYLASNLESGVPARFSGSGSGTDFTLNIHPVEEEDAATYYCQHSRELPYTFGAGTKLELKR	nM	1.9
anti-hGhrelin Fab 1111 (Fab, V domains shown, Mouse Fab from an Omniclonal library (immunised C57Bl/6 mice); kappa light chain (detected or captured with goat anti-mouse kappa)) VH: EIQLQQSGAELMKPGASVKLSCKATGYIFTGYWIEWVKQRPGHGLEWIGEILPGSGSTNYNEKFKGKATFTADTSSNTANMQLSSLTTEDSAIYYCARYPQFRLRRERIAYWGQGTLVTVSV VL: DLVLTQSPASLAVSLGQRATISCRASKSVSTSGYSYMHWYQQKPGQPPKLLIYLASNLESGVPARFSGSGSGTDFTLNIHPVEEEDAATYYCQHSRELPYTFGAGTKLELKR	nM	1.1
anti-hGhrelin Fab 2291 (Fab, V domains shown, Mouse Fab, kappa light chain) VH: EIQLQQSGAELMKPGASVKLSCKATGYTFTGYWIEWAKQRPGHGLEWIGEILPGSGSTNYNEKFKGKATFTADTSSNTANMQLSSLTTEDSAIYYCARYPQFRLRRERIAYWGQGTLVTVSV VL: DLVLTQSPASLAVSLGQRATISCRASKSVSTSGYSYMHWYQQKPGQPPKLLIYLASNLEPGVPARFSGSGSGTDFTLNIHPVEEEDAATYYCQHSRELPYTFGAGTKLELKR	nM	0.8

Now for the binder whose IC50 (nM), FLPR calcium assay on AV12 cells expressing human GHS-R1a we want.
# binder anti-hGhrelin Fab 2891 (Fab, V domains shown, Mouse Fab, kappa light chain) VH: EIQLQQSGAELMKPGASVKLSCKATGYTFTGYWIEWVKQRPGHGLEWIGEILPGSGSTNYNEKFKGKATFTADTSSNTANMQLSSLTTEDSAIYYCARYPQFRLRRERIAYWGQGTLVTVSV VL: DLVLTQSPASLAVSLGQRATISCRASKSVSTSGYSYMHWYQQKPGQPPKLLIYLASNLESGVPARFSGSGSGTDFTLNIHPVEEEDAATYYCQHSRELPYTFGAGTKLELKR ; its IC50 (nM), FLPR calcium assay on AV12 cells expressing human GHS-R1a = 0.9

Hey, just so you know, these numbers are from patent US20060269550A1.
